Reported Total bilirubin values for the following substances.
Tested on: ICR (CD-1) mice
Test: In vivo toxicity in mice (SC, IN, IP routes)
Parameters: unit not given here
Settings: serum; SC, 3 doses (1hr, 12hr, 24hr); head doses: RN7-IN10, RN7-IN8 20 mg/kg; RN7-IN9, RN7-IN6 10 mg/kg; day 7; mean±SD, 4 mice
MEASUREMENT_NAME: Total bilirubin

- FLGGLIKWWPWRR-NH2 [RN7-IN6, hybrid peptide of ranalexin (residues 1-7) and indolicidin (residues 8-13)]: 2.03±0.14
- FLGGLIKWKWPWWPWRR-NH2 [RN7-IN10, hybrid peptide of ranalexin (residues 1-7) and indolicidin (residues 4-13)]: 2.1±0.35
- FLGGLIKKWPWWPWRR-NH2 [RN7-IN9, hybrid peptide of ranalexin (residues 1-7) and indolicidin (residues 5-13)]: 2.2±0.13
- FLGGLIKWPWWPWRR-NH2 [RN7-IN8, hybrid peptide of ranalexin (residues 1-7) and indolicidin (residues 6-13)]: 1.84±0.12
